Origin of values: ChEMBL document CHEMBL3400118

# TARGET ENTITY: Cyclin-dependent kinase 2/cyclin E1 (Homo sapiens)
# ASSAY COMMENT: Inhibition of CDK2/Cyclin E (unknown origin) using histone H1 as substrate by [gamma-33P]ATP assay
Readings of IC50 for the listed compounds

{"columns": ["SMILES STRUCTURE", "TARGET ENTITY", "IC50"],
 "data": [
  ["CCOc1ccc(S(=O)(=O)NCCN)cc1-c1nnc2c(n1)c(C)nn2C", "Cyclin-dependent kinase 2/cyclin E1 (Homo sapiens)", "> 50 µM"],
  ["CCOc1ccc(S(=O)(=O)N2CCCCC2)cc1-c1nnc2c(n1)c(C)nn2C", "Cyclin-dependent kinase 2/cyclin E1 (Homo sapiens)", "> 25 µM"],
  ["CCOc1ccc(S(=O)(=O)NCCO)cc1-c1nnc2c(n1)c(C)nn2C", "Cyclin-dependent kinase 2/cyclin E1 (Homo sapiens)", "> 50 µM"],
  ["CCOc1ccc(S(=O)(=O)N2CCNCC2)cc1-c1nnc2c(n1)c(C)nn2C", "Cyclin-dependent kinase 2/cyclin E1 (Homo sapiens)", "> 50 µM"],
  ["CCOc1ccc(S(=O)(=O)N2CCCC2)cc1-c1nnc2c(n1)c(C)nn2C", "Cyclin-dependent kinase 2/cyclin E1 (Homo sapiens)", "> 50 µM"]
]}

Please give the measured IC50 for this compound: CCOc1ccc(S(=O)(=O)N2CCCNCC2)cc1-c1nnc2c(n1)c(C)nn2C 44.3 µM

Same for CCOc1ccc(S(=O)(=O)NC(C)(CO)CO)cc1-c1nnc2c(n1)c(C)nn2C > 100 µM

Next record, please: CCOc1ccc(S(=O)(=O)N2CCOCC2)cc1-c1nnc2c(n1)c(C)nn2C > 50 µM

Note, next up: CCCc1nn(C)c2nnc(-c3cc(S(=O)(=O)N4CCN(C)CC4)ccc3OCC)nc12 > 25 µM

Another compound to look at: CCOc1ccc(S(=O)(=O)NC(C)(C)CO)cc1-c1nnc2c(n1)c(C)nn2C > 100 µM

---

# TARGET ENTITY: Tyrosine-protein kinase ABL1 (Homo sapiens)
# Sequence (P00519 whole entry): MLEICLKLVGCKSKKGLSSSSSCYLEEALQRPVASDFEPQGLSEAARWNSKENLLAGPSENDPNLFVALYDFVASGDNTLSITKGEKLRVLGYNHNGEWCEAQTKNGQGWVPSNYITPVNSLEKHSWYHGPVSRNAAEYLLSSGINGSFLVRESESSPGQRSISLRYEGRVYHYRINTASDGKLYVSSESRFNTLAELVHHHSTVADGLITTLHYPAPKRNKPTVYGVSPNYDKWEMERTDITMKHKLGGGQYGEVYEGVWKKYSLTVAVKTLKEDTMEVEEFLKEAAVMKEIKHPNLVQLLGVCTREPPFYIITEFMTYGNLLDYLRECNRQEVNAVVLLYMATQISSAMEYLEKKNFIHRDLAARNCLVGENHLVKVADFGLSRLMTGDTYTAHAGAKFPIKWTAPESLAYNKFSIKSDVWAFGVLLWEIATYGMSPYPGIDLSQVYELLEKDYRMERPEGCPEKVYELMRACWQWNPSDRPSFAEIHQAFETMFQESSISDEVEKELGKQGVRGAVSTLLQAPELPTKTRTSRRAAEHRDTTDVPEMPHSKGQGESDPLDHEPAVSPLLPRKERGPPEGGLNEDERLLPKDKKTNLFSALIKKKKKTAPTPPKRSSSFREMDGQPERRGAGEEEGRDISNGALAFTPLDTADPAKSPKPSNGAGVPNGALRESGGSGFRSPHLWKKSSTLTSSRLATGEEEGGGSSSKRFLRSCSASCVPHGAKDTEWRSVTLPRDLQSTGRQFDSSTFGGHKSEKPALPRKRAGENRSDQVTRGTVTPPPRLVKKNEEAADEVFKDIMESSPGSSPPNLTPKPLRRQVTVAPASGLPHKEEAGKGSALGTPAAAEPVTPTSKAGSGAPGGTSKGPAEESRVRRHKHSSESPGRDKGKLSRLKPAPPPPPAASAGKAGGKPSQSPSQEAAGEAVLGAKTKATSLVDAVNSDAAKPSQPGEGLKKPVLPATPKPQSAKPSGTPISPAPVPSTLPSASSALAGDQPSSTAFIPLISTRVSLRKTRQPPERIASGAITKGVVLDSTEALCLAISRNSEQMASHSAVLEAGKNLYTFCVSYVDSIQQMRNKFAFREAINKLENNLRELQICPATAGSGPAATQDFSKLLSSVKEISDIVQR
# ASSAY COMMENT: Inhibition of Abl (unknown origin) using GGEAIYAAPFKK peptide as substrate by [gamma-33P]ATP assay
pIC50: −log10 of the molar value.
Entries and their pIC50 values follow.

Here are 3 compounds together with their reported answers.
{"columns": ["SMILES STRUCTURE", "TARGET ENTITY", "pIC50"],
 "data": [
  ["CCOc1ccc(S(=O)(=O)N(CC)CC)cc1-c1nnc2c(n1)c(C)nn2C", "Tyrosine-protein kinase ABL1 (Homo sapiens)", "< 4.30"],
  ["CCOc1ccc(S(=O)(=O)N2CCN(C)CC2)cc1-c1nnc2c(n1)c(C)nn2C", "Tyrosine-protein kinase ABL1 (Homo sapiens)", "< 4.30"],
  ["CCOc1ccc(S(=O)(=O)N2CCNCC2)cc1-c1nnc2c(n1)c(C)nn2C", "Tyrosine-protein kinase ABL1 (Homo sapiens)", "< 4.30"]
]}

Which pIC50 is reported with Tyrosine-protein kinase ABL1 (Homo sapiens) for this entry: CCCc1nn(C)c2nnc(-c3cc(S(=O)(=O)N4CCN(C)CC4)ccc3OCC)nc12 ? < 4.30

What do we get for CCOc1ccc(S(=O)(=O)NCCO)cc1-c1nnc2c(n1)c(C)nn2C ? < 4.30

Now the same for CCOc1ccc(S(=O)(=O)NCCN)cc1-c1nnc2c(n1)c(C)nn2C < 4.30

What do you have for CCOc1ccc(S(=O)(=O)N2CCCCC2)cc1-c1nnc2c(n1)c(C)nn2C ? < 4.60

Another compound: CCOc1ccc(S(=O)(=O)NC(C)(CO)CO)cc1-c1nnc2c(n1)c(C)nn2C < 4.00

Would you mind doing CCOc1ccc(S(=O)(=O)N2CCCC2)cc1-c1nnc2c(n1)c(C)nn2C as well? < 4.30
